experimental_target: T1, recombinant human CFD mutant 1 (R157A, R207A), His-tagged (human, UniProt P00746 26-253)
T1 construct: positions are linear positions in the mature protein; also called rhCFD-mut1-His; Mut1
T1 sequence (P00746 26-253 R182A/R232A limits assumed): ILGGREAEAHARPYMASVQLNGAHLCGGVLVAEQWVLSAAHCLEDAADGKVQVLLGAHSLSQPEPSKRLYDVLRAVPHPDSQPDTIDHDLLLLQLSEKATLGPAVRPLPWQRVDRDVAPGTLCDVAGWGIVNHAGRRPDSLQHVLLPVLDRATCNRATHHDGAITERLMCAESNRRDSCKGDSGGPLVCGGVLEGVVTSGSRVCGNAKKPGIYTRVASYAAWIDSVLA
measurement_protocol: SPR MX96
// NB: equality with 1 nM counts as No; only Kd strictly below is Yes

Use the examples below as a reference point.
binder	classification
KCD033 (antibody, V domains shown) VH: EVQLQQSGPELVKPGASMKISCTASGYSFTGYTMTWVKQSHGKNLEWIGLINPYNGGTNYNQKFKGKATLTVDKSSSIAYMELLSLTSEDSAVYYCARRHYGSNWDYWGQGTTLTVSS VL: DIKLTQSPSSIYTSLGERVTITCKASQDINTYLSWFQQRPGKSPKTLIYRADRLVDGVPSRVRGSGSGQDYSLTISSLEYEDMGIYYCLQYDEFPYTFGGGTKLEIK	No
KCD002 (antibody, V domains shown, chimeric) VH: EVKLVESEGGLVQPGSSMKLSCTASGFTFSDYYMAWVRQVPEKGLEWVGNINYDGSSTYYLDSLKSRFIISRDSAKNILYLQMSSLKSEDTATYFCARGEDFYLYAMDYWGQGTSVTVSS VL: DIQMTQSPASLSASVGETVTITCRASENIHSYLAWYQQKQGKSPQLIVYNTKTLAEGVPSRFSGSGSGTQFSLKINSLQPEDFGSYYCQHHYGIPPTFGGGTKLEIK	Yes
KCD017 (antibody, V domains shown) VH: DVQLQESGPDLVKPSQSLSLTCTVTDYSITSGYSWHWIRQFPGNKLEWLGYIHSSGNTNYNPSLKSRFSITRDTSKNQFFLQLNSVTSEDTATYYCALHYYGSSFGWYFDVWGAGTTVTVSS VL: DIVMTQSHKFMSTSVGDRVYITCKASQDVGTAVAWYQQTSGQSPKLLIYWASTRHTGVPDRFTGSGSGTDFTLTLSNVQSEDLADYFCQQYTSYPLTFGAGTKLELK	No
KCD114 (antibody, V domains shown) VH: EVQLQQSGPELVKPGASVKISCKASGYSFTAYYMNWVKQSPEKSLEWIGDINPSTGGTTYNQNFKAKATLTVDKSSSTAYMHLKSLTSEDSAVYYCATTYYSGNSYVGFAYWGQGTLVTVSA VL: DIVMTQSHKFMSTSVGDRVSITCKASQDVSTAVAWYQQKPGQSPKLLIFWASTRHTGVPDRFTGSGSGTDYTLTISSVQAEDLALYYCQQHYSTPWTFGGGTKLEIK	No
KCD001 (antibody, V domains shown) VH: EVQLQQSGPELVKPGASVKISCKASDNSFTGYYMHWVKQSHGNILDWIGYIDPYNGVSSYNQKFKGKATLTVDKSSSTAYMEIRSLTSEDSAVYYCASYYGSSPYWYFDVWGTGTTVTVSS VL: QIVLSQSPAILSASPGEKVTMTCRASSSVSYMHWYQQKPGSSPKPWIYATSNLASGVPARFSGSGSGTSHFLTISRLEAEDAATYFCQQWSSNPYTFGGGTKLEIK	Yes
KCD132 (antibody, V domains shown) VH: QVQLQQSGPELVKPGASVKISCKASGYSFTDYYINWVKQRPGQGLEWIGWIFPGSGSTYYNEKFKGKATLTVDKSSSTAYMLLSSLTSEDSAVYFCARTGYYSNLYAVDYWGQGTSVTVSS VL: DIQMTQSPASLSVSVGETVTITCRASENIYSNLAWYQQKQGKSPQLLVYVATNLADGVPSRFSGSGSGTQYSLKINSLQSEDFGNYYCQHFWGTPYTFGGGTKLEMR	No
KCD136 (antibody, V domains shown, chimeric) VH: EVQLQQSVAELVRPGASVKLSCSASGFNIKNTYMHWVNQRPEQGLEWIGRIDPANGITKYAPNFQGKATITADTSSNTAYLQLSNLTSEDTAIYYCTRAMDYWGQGTSVTVSS VL: QIVLTQSPAIMSASPGEKVTMTCSASSSVSYMYWYQQKPGSSPRLLIYDISNLASGVPVRFSGSGSGTSYSLTISRMEAEDAATYYCQQWDTYPWTFGGGTKLEIK	No
KCD126 (antibody, V domains shown) VH: EVQLQQSGAELVRPGSSVKMSCKTSGKTFTSHGINWVKQRPGQGLEWIGYIYIGNGYNEYNEKFKGKATLTSDTSSSTAYMQLSSLTFEDSAIYFCVRKAYGNYGFDDWGQGTTLTVSS VL: DIQMTQSPTSLSASLGESVSLTCRASQEISGNLNWLQQKPDGSIKRLIYAASTLDSGVPKRFSGSRSGSDYSLTISSLESEDFADYYCLQYANYPFTFGSGTKLEVK	Yes

Consider the binder KCD128 (antibody, V domains shown) VH: QVQLQQPGAELVRPESSVKLSCKASGYTFTSYWMDWVMQRPGQGLEWIGNIYPSGSETHYNQKFKDKATLTVDKSSTTAYMQLSSLTFEDSAVYYCARSGFIGSRYLYYFDYWGQGTTLTVSS VL: DIVMTQSHKFMSTSVGDRVTITCKASQDVSNAVAWYQLKPGQSPKLLIYSASYRYTGVPDRFTGSGSGTDFTFTISSVQAADLAVYYCQQHYITPYTFGGGTKLEIK . Is its Kd strictly less than 1 nM? No

Note, next up: KCD219 (antibody, V domains shown) VH: QVQLQQSGPELVKPGASVKISCKASGYTFTDYYINWVKQRPGQGLEWIGWIFPGSGSTYYNEKFKGKATLTVDKSSSTAYMLLSSLPSEDSAVYFCARYGYYGSSFYAMDYWGQGTSVTVSS VL: DIQMTQSPASLSVSVGETVTITCRASENIYSNLAWYQQKQGKSPQLLVYAATNLADGVPSRFSGSGSGTQYSLKINSLQSEDFGSYYCQHFWGSPPTFGGGTKLEIK No
